// provenance: ChEMBL document CHEMBL3507680

- ASSAY_DETAILS: Human HepG2 cell viability assay in 384 well format
- Format: toxicity, cell-based
- Parameters: dose 125 nL, time 70.5 hour; concentration not given beside the values
- CONDITION_INFO: HepG2 cells, read-out: Inhibition
Each record here notes measured cytotoxicity at 70.5 h.
Give the number; % is assumed, so skip it.

Example cases with answers are listed next.
1) CCC(=O)N1CCN(c2ccc(C(=O)OC)cc2)CC1C (stereo not given) : -0.474
2) COCC(=O)NC[C@]1(O)CN(Cc2ccc3c(c2)OCCO3)C[C@H]1O : -12.9
3) CCCNC(=O)c1nn(CC)cc1NC(=O)c1cn(C)nc1C : -12.7
4) Cn1cc(CN2CCn3cc(CNC(=O)C4CCC4)nc3C2)cn1 : 2.26
5) Cc1noc2ncc(S(=O)(=O)N3CCCC(C)(C)CC3)cc12 : -2.62

If you can, please state the reported cytotoxicity at 70.5 h value of "Cc1ccccc1CN(CCO)Cc1ncc[nH]1" .
-12.3

Let us now turn to "CC(C)S(=O)(=O)N1C[C@@H](O)[C@H](N(C)Cc2ccc(F)cc2)C1"
0.65

Moving on to CCOCC1CN(Cc2ccoc2)Cc2nn(CC3CC3)cc21 (stereo not given)
5.44
